- Measurement Description: Metabolic stability test in liver S9
- Format: in vitro ADME
- Condition Context: pH 7.4; unchanged form after 10 minutes at 37°C, human liver S9 2 mg protein/mL, LC/MS; read-out: Remaining rate in human liver S9 (%/10min)
Recorded Metric: remaining at 10 min (%)

CN(C)C(=O)c1cc(CCCC(=O)Oc2ccc(C(=O)OCc3ccccn3)cc2)ccc1NC(=O)c1ccccc1-c1ccc(C(F)(F)F)cc1 = 0
CN(C)C(=O)c1cc(CCCC(=O)Oc2ccc(C(=O)OCCOCc3ccccc3)cc2)ccc1NC(=O)c1ccccc1-c1ccc(C(F)(F)F)cc1 = 6
CN(C)C(=O)c1cc(CCCC(=O)Oc2ccc(-c3nnn(CC(=O)OCc4ccccc4)n3)cc2)ccc1NC(=O)c1ccccc1-c1ccc(C(F)(F)F)cc1 = 14
COc1cc(C(=O)OCCNC(C)=O)cc(Cl)c1OC(=O)CCCc1ccc(NC(=O)c2ccc(C)nc2-c2ccc(C(F)(F)F)cc2)c(C(=O)N(C)C)c1 = 14
COC(=O)c1ccc(OC(=O)CCCc2ccc(NC(=O)c3ccccc3-c3ccc(C(F)(F)F)cc3)c(C(=O)N(C)C)c2)c(Cl)c1 = 0
COC(=O)c1cc(Cl)c(OC(=O)CCCc2ccc(NC(=O)c3ccc(C)nc3-c3ccc(C(F)(F)F)cc3)c(C(=O)N(C)C)c2)c(OC)c1 = 3
Cc1cccc(COC(=O)c2ccc(OC(=O)CCCc3ccc(NC(=O)c4ccc(C)nc4-c4ccc(C(F)(F)F)cc4)c(C(=O)N(C)C)c3)cc2)n1 = 0
CC(=O)NCCOC(=O)c1ccc(OC(=O)CCCc2ccc(NC(=O)c3ccccc3-c3ccc(C(F)(F)F)cc3)c(C(=O)N(C)C)c2)cc1 = 0

(P) COC(=O)c1ccc(-c2nc(C)ccc2C(=O)Nc2ccc(CCCC(=O)Oc3c(C)cc(C(=O)OC)cc3Cl)cc2C(=O)N(C)C)cc1
(Q) COC(=O)c1cc(Br)c(OC(=O)CCCc2ccc(NC(=O)c3ccc(C)nc3-c3ccc(C(F)(F)F)cc3)c(C(=O)N(C)C)c2)c(OC)c1
stdin: Dear colleague, could you let me know whether P or Q has the lower recorded remaining at 10 min? Thanks. Give the chosen item's label as your response.
stdout: P

Cited source: patent EP1803452A1
